- target: ROCK2 (Homo sapiens, UniProt O75116)
- Sequence (O75116 whole entry): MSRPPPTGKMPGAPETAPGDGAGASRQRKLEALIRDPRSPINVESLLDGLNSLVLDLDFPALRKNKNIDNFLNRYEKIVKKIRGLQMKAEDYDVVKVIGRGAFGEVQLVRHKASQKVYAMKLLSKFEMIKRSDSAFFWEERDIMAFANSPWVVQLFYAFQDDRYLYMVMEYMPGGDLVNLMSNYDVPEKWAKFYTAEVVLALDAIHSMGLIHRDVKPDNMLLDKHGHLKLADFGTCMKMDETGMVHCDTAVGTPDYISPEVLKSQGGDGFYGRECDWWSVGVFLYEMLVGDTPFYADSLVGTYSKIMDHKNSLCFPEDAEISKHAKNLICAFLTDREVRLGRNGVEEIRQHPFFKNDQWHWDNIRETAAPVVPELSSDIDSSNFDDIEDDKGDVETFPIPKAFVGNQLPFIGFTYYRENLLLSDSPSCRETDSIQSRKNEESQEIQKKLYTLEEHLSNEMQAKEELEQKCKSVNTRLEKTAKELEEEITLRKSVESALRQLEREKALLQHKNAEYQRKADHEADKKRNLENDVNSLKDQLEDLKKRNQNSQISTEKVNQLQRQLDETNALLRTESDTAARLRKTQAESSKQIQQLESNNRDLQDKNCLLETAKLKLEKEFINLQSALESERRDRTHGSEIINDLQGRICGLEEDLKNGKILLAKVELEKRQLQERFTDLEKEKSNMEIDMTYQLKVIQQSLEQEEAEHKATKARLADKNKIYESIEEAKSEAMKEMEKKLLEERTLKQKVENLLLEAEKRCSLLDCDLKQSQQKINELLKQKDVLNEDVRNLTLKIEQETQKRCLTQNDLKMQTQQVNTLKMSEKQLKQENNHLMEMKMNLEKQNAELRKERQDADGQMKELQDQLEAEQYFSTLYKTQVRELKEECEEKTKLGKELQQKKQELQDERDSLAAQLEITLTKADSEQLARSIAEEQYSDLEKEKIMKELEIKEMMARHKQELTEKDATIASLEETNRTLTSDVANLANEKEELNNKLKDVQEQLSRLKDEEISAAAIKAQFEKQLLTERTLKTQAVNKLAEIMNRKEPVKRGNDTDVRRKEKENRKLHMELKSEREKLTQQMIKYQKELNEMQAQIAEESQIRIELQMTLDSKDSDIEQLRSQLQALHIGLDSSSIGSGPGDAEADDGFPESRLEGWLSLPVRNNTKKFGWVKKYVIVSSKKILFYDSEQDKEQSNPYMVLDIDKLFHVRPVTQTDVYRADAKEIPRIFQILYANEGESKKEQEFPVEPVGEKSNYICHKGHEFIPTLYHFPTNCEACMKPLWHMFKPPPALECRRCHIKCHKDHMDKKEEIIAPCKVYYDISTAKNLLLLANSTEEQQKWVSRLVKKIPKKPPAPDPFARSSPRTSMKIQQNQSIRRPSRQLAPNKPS
- assay text: kinase inhibition assay (method cited to earlier paper)
- Type: biochemical
quantity: IC50 (µM)
Answers are plain numbers, in µM.

### Prompt For the molecule Cc1ccc(O)c(-c2cc(CC(=O)O)ccc2O)c1 , what IC50 is on record?
### Response 27.1

###

- target: DDR1 (Homo sapiens, UniProt Q08345)
- Sequence (Q08345 19-913): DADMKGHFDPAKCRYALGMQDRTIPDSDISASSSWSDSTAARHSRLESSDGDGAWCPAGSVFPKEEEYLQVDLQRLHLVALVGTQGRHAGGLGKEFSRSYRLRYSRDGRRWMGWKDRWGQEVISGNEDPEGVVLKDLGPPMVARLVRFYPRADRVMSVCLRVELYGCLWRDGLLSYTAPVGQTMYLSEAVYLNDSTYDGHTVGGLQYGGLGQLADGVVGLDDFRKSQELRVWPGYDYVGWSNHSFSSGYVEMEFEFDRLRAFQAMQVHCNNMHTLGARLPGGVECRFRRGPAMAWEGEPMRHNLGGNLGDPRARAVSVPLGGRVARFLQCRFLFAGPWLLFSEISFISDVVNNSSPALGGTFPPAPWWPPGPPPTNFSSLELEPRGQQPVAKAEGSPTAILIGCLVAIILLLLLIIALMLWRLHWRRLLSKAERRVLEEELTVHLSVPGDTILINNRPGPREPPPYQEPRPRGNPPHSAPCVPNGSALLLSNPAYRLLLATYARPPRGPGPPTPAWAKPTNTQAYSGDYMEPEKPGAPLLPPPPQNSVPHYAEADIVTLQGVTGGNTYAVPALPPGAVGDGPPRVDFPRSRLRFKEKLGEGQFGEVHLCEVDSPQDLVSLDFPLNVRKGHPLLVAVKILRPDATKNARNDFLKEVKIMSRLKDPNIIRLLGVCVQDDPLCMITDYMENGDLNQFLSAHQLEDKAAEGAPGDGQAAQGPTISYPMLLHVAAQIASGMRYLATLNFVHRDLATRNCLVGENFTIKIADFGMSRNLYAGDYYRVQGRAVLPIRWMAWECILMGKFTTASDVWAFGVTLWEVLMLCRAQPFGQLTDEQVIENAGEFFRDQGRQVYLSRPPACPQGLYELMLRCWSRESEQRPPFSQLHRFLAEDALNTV
- assay text: kinase inhibition assay (method cited to earlier paper)
- Type: biochemical
Give measured IC50 for each item. Keep answers brief.

molecule | IC50
OC[C@@H]1OC[C@@H](c2ccc(O)c(O)c2)c2cc(O)c(O)cc21 (stereo in doubt) [(−)-9, (−)-Periplanol A] | 22.9 µM

Please turn your attention to the following entry.
### Prompt For the molecule OC[C@H]1OC[C@H](c2ccc(O)c(O)c2)c2cc(O)c(O)cc21 (stereo in doubt) [(+)-9, (+)-Periplanol A] , what IC50 is on record?
### Response 23.9 µM
